- system: T1, Human CD98, endogenous on HCC38, Molt-4 and Jurkat human cancer cells (human)
- T1 chain: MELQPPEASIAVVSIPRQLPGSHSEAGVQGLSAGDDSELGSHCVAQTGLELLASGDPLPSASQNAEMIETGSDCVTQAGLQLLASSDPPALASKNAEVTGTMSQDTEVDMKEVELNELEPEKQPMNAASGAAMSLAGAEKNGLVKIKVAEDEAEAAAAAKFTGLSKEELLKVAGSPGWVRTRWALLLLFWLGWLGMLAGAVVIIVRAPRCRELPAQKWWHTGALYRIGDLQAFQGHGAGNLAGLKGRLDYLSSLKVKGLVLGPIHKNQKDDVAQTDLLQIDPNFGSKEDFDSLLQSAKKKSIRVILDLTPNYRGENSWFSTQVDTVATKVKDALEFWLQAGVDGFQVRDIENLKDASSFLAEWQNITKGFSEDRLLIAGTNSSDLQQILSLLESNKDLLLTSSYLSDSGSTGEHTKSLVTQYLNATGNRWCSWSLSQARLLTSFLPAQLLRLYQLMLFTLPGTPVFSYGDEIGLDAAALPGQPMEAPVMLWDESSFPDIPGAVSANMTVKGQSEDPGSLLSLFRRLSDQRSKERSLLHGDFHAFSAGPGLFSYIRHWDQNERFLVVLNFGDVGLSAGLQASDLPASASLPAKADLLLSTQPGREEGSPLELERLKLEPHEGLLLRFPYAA
- measurement description: cell-based or functional assay
Listing of entries alongside the reported ADC potency, IC50 (nM), Jurkat growth inhibition.
// units = nM; emit number, no label

Known ADC potency, IC50 (nM), Jurkat growth inhibition results, listed for orientation:
Req: Please report the recorded ADC potency, IC50 (nM), Jurkat growth inhibition for Ab13-CZ (Ab13 conjugated to Bcl-xL inhibitor synthon CZ) (antibody, V domains shown) VH: QVQLKESGPGLVQPSQTLSLTCTVSGFSLSSYGVIWVRQPPGKGLEWMGIIWANGNTNYNSALKSRLSISRDTSKSQVYLKMNSLQTEDTATYYCARHYYDGTHYYGYFDYWGQGVMVTVSS VL: DTVMTQTPSSQAVSAGEKVTMSCKSSQSLLYSENKKKYLAWYQQKPGQSPKLLIYWASTRESGVPDRFIGSGSGTDFTLTISSVQAEDLAVYYCQQYYNFPYTFGAGTKLELK .
Resp: 0.149

Req: What measured ADC potency, IC50 (nM), Jurkat growth inhibition goes with Ab10-CZ (Ab10 conjugated to Bcl-xL inhibitor synthon CZ) (antibody, V domains shown) VH: EVQLVESGGGLVQPGRSLKLSCAASGFTFSDYAMAWVRQAPKKSLEWVATIIYDGRGTYCRDSVKGRFTISRDNAKSTLYLQMDSLRSEDTATYYCARQGDGTYHYWGYFDYWGQGVMVTVSS VL: DIVMTQSPSSLAVSAGETVTINCKSSQSLLSSGNQKNYLAWYQQKPGQSPKLLIYWASTRQSGVPDRFIGSGSGTDFTLTISSVQAEDLAIYYCQQYYDTPYTFGAGTKVDLK ?
Resp: 0.148

Continuing:
Req: For the binder Ab3-CZ (Ab3 conjugated to Bcl-xL inhibitor synthon CZ) (antibody, V domains shown) VH: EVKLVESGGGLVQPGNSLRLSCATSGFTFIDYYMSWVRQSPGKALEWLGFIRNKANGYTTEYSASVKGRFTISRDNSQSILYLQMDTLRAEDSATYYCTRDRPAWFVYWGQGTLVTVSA VL: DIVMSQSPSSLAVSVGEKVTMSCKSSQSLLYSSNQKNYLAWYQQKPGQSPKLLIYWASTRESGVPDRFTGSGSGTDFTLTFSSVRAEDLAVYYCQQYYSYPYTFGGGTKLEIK , what ADC potency, IC50 (nM), Jurkat growth inhibition is on record?
Resp: 0.071

Reference source for all entries: patent US20200121803A1
